# reported cell viability; entries follow
system: MOLM-13; experiment: cell viability (% survival relative to DMSO control, bortezomib = 0%); higher = less cytotoxic; settings: 1000 nM; 72 h
Numeric answer only, unit % assumed.

Q. Return cell viability for the following molecule: Cc1ccc(-c2cc(C(F)(F)F)nn2-c2ccc(S(N)(=O)=O)cc2)cc1 [Celecoxib]
A. 139

Q. Return cell viability for the following molecule: CN(Cc1cnc2nc(N)nc(N)c2n1)c1ccc(C(=O)N[C@@H](CCC(=O)O)C(=O)O)cc1 [Methotrexate]
A. 0.853

Q. Return cell viability for the following molecule: Cc1cc(C(=O)NNCc2ccccc2)no1 [Isocarboxazid]
A. 106

Q. Return cell viability for the following molecule: O=C(/C=C/c1ccc(O)c(O)c1)OCCc1ccccc1 [Caffeic acid phenethyl ester]
A. 97.2

Q. Return cell viability for the following molecule: N#C/C(=C\c1ccc(O)cc1)C(=O)O [alpha-cyano-4-hydroxycinnamic acid]
A. 99.1

* * *

# reported cell viability; entries follow
tested on: ML-2; experiment: cell viability (% survival relative to DMSO control, bortezomib = 0%); higher = less cytotoxic; conditions: 1000 nM; 72 h
Structures can show the parent of a compound that is named as a salt.

1) Cc1cc(C(=O)NNCc2ccccc2)no1 [Isocarboxazid] = 90.4%
2) CC/C=C\C[C@H]1C(=O)CC[C@@H]1CC(=O)OC [Methyl jasmonate] = 99.9%
3) O=C(/C=C/c1ccc(O)c(O)c1)OCCc1ccccc1 [Caffeic acid phenethyl ester] = 61.4%
4) CCCCCCCC/C=C\CCCCCCCC(=O)Nc1ccccc1 [Octadec-9-Enoic Acid Phenylamide] = 103%
5) CCN(CCO)CCCC(C)Nc1ccnc2cc(Cl)ccc12 (stereo unspecified) [Hydroxychloroquine sulfate] = 106%

Lab note: next compound to report on.
Q. Return cell viability for the following compound: "Cc1nc(-c2ccccc2)sc1C(=O)Nc1ccc(S(N)(=O)=O)cc1"
A. 107%

* * *

tested on: LAMA-84; experiment: cell viability (% survival relative to DMSO control, bortezomib = 0%); higher = less cytotoxic; conditions: 1 nM; 72 h
readout_type: cell viability (%)
Numeric answer only, unit % assumed.

1) Cc1cc(C(=O)NNCc2ccccc2)no1 = 98.9

Q. Return cell viability for the following compound: "CC(C)(C)c1ccc(S(=O)(=O)NCc2ccc(C(=O)Nc3cccnc3)cc2)cc1"
A. 97.5

Q. Return cell viability for the following compound: "Cc1c(Cl)cccc1S(=O)(=O)Nc1nc(CC(=O)N2CCN(C)CC2)cs1"
A. 101

Q. Return cell viability for the following compound: CN(Cc1cnc2nc(N)nc(N)c2n1)c1ccc(C(=O)N[C@@H](CCC(=O)O)C(=O)O)cc1 [Methotrexate]
A. 98.8

Q. Return cell viability for the following compound: "CC(C)CC(=O)N[C@H](C(=O)N[C@H](C(=O)N[C@@H](CC(C)C)[C@@H](O)CC(=O)N[C@@H](C)C(=O)N[C@@H](CC(C)C)[C@@H](O)CC(=O)O)C(C)C)C(C)C"
A. 92.2

Q. Return cell viability for the following compound: C=CCN(C)CCCCCCOc1ccc(C(=O)c2ccc(Br)cc2)c(F)c1.O=C(O)/C=C/C(=O)O [Ro 48-8071 fumarate]
A. 90.6

* * *

test system: SHI-1; test: cell viability (% survival relative to DMSO control, bortezomib = 0%); higher = less cytotoxic; conditions: 1000 nM; 72 h
readout_type: cell viability (%)
Numeric answer only, unit % assumed.

Below are worked cases with known answers.
1) C[C@]12C=CC(=O)C=C1CC[C@@H]1[C@@H]2[C@@H](O)C[C@@]2(C)[C@H]1CC[C@]2(O)C(=O)CO = 67.6
2) CO[C@H]1C[C@@H]2CC[C@@H](C)[C@@](O)(O2)C(=O)C(=O)N2CCCC[C@H]2C(=O)O[C@H]([C@H](C)C[C@@H]2CC[C@@H](OC(=O)C(C)(CO)CO)[C@H](OC)C2)CC(=O)[C@H](C)/C=C(\C)[C@@H](O)[C@@H](OC)C(=O)[C@H](C)C[C@H](C)/C=C/C=C/C=C/1C = 58.8
3) N[C@@H](CC(=O)N1CCn2c(nnc2C(F)(F)F)C1)Cc1cc(F)c(F)cc1F = 96.8
4) C=CC(=O)c1ccc(O)cc1 = 114
5) O=c1c(-c2ccc(O)cc2)coc2cc(O[C@@H]3O[C@H](CO)[C@@H](O)[C@H](O)[C@H]3O)ccc12 = 107

Q. Return cell viability for the following compound: "CC(C)CC(=O)N[C@H](C(=O)N[C@H](C(=O)N[C@@H](CC(C)C)[C@@H](O)CC(=O)N[C@@H](C)C(=O)N[C@@H](CC(C)C)[C@@H](O)CC(=O)O)C(C)C)C(C)C"
A. 105

Q. Return cell viability for the following compound: "CCCc1nc(C)c2c(=O)nc(-c3cc(S(=O)(=O)N4CCN(CC)CC4)ccc3OCC)[nH]n12"
A. 99.7

* * *

test system: HL-60; assay: area under dose-response curve (viability, 1 nM-10 uM) (fraction (0-1)); higher = more sensitive; details: 72 h; co-treatment: AZD3965 100 nM
readout_type: area under dose-response curve

Below are worked cases with known answers.
1. CC/C=C\C[C@H]1C(=O)CC[C@@H]1CC(=O)OC [methyl jasmonate] = < 0.0301
2. C=CCN(C)CCCCCCOc1ccc(C(=O)c2ccc(Br)cc2)c(F)c1.O=C(O)/C=C/C(=O)O [Ro 48-8071 fumarate] = 0.0549
3. Cc1nc(-c2ccccc2)sc1C(=O)Nc1ccc(S(N)(=O)=O)cc1 = < 0.0301
4. CC(=O)Nc1nc(C)c(-c2ccc(Cl)c(S(=O)(=O)NCCO)c2)s1 = 0.172
5. CCc1oc2ccccc2c1C(=O)c1cc(Br)c(O)c(Br)c1 = < 0.0301
6. O=c1cc(N2CCOCC2)oc2c(-c3ccccc3)cccc12 = < 0.0301

Lab note: next molecule to report on.
Q. Return area under dose-response curve for the following molecule: "COc1ccc2c(NC(=O)Nc3cccc(C(F)(F)F)n3)ccnc2c1"
A. < 0.0301

* * *

test system: HL-60; assay: cell viability (% survival relative to DMSO control); higher = less cytotoxic; conditions: 0.01 µM; 72 h; co-treatment: AZD3965 100 nM
# reported cell viability; entries follow

1) Cc1cc2c(C(C)C)c(O)c(O)c(C=O)c2c(O)c1-c1c(C)cc2c(C(C)C)c(O)c(O)c(C=O)c2c1O = 106%
2) OC[C@H]1NC[C@H](O)[C@@H](O)[C@@H]1O = 99.7%
3) O=C(O)CC[N+](=O)[O-] = 95.1%

Lab note: next molecule to report on.
Q. Return cell viability for the following molecule: "CN(CCOc1ccc(Cc2sc(O)nc2O)cc1)c1ccccn1"
A. 105%

* * *

test system: myeloid leukemia patient primary cells Pat.12; test: area under dose-response curve (viability, 1 nM-10 uM) (fraction (0-1)); higher = more sensitive; conditions: 72 h
# reported area under dose-response curve; entries follow

Below are worked cases with known answers.
1. Cn1cc(-c2ccncc2)c(-c2ccc(OCc3ccc4ccccc4n3)cc2)n1 = < 0.0301
2. Cc1c2c(=O)n(-c3ccccc3Cl)[nH]c2cc(=O)n1Cc1ccccn1 = < 0.0301

Lab note: next compound to report on.
Q. Look up and report area under dose-response curve, with myeloid leukemia patient primary cells Pat.12 as system, for CN(Cc1cnc2nc(N)nc(N)c2n1)c1ccc(C(=O)N[C@@H](CCC(=O)O)C(=O)O)cc1 [Methotrexate]
A. < 0.0301

* * *

tested on: KU-812; test: cell viability (% survival relative to DMSO control, bortezomib = 0%); higher = less cytotoxic; settings: 10000 nM; 72 h
readout_type: cell viability (%)
Numeric answer only, unit % assumed.

Q. Return cell viability for the following compound: "N[C@@H](CC(=O)N1CCn2c(nnc2C(F)(F)F)C1)Cc1cc(F)c(F)cc1F"
A. 102

Q. Return cell viability for the following compound: "Cc1nc(-c2ccccc2)sc1C(=O)Nc1ccc(S(N)(=O)=O)cc1"
A. 104

Q. Return cell viability for the following compound: "Cc1c2c(=O)n(-c3ccccc3Cl)[nH]c2cc(=O)n1Cc1ccccn1"
A. 98.1

Q. Return cell viability for the following compound: "O=C(O)CC[N+](=O)[O-]"
A. 88.1

Q. Return cell viability for the following compound: "OC[C@H]1NC[C@H](O)[C@@H](O)[C@@H]1O"
A. 103

* * *

tested on: Mono-Mac-6; experiment: cell viability (% survival relative to DMSO control, bortezomib = 0%); higher = less cytotoxic; details: 10 nM; 72 h
# reported cell viability; entries follow
Numeric answer only, unit % assumed.

Below are worked cases with known answers.
1. N#Cc1ccc(N(Cc2ccc(Br)cc2)n2cnnc2)cc1 [YM511] = 102
2. CCCc1nc(C)c2c(=O)nc(-c3cc(S(=O)(=O)N4CCN(CC)CC4)ccc3OCC)[nH]n12 [Vardenafil] = 83
3. CCn1c(=Cc2cccc[n+]2CC)sc(=C2Sc3ccccc3N2C)c1=O [MKT 077] = 110
4. CCCCCCCC/C=C\CCCCCCCC(=O)Nc1ccccc1 [Octadec-9-Enoic Acid Phenylamide] = 103
5. Cc1ccc(-c2cc(C(F)(F)F)nn2-c2ccc(S(N)(=O)=O)cc2)cc1 [Celecoxib] = 101
6. O=C(/C=C/c1ccc(O)c(O)c1)OCCc1ccccc1 [Caffeic acid phenethyl ester] = 92.7

Q. Look up and report cell viability, with Mono-Mac-6 as system, for CO[C@H]1C[C@@H]2CC[C@@H](C)[C@@](O)(O2)C(=O)C(=O)N2CCCC[C@H]2C(=O)O[C@H]([C@H](C)C[C@@H]2CC[C@@H](OCCO)[C@H](OC)C2)CC(=O)[C@H](C)/C=C(\C)[C@@H](O)[C@@H](OC)C(=O)[C@H](C)C[C@H](C)/C=C/C=C/C=C/1C [Everolimus]
A. 46.4

Q. Look up and report cell viability, with Mono-Mac-6 as system, for "COc1ccc2c(NC(=O)Nc3cccc(C(F)(F)F)n3)ccnc2c1"
A. 92.3

Q. Look up and report cell viability, with Mono-Mac-6 as system, for CCCCCN(C)CCC(O)(P(=O)(O)O)P(=O)(O)O [Ibandronate]
A. 98.3
